Give inhibition at 50 µM for every item shown.
target: BChE (Homo sapiens, UniProt P06276); experiment: BChE inhibition, modified Ellman's method; type: biochemical; conditions: 50 µM; mean ± S.E
Sequence (P06276 29-602): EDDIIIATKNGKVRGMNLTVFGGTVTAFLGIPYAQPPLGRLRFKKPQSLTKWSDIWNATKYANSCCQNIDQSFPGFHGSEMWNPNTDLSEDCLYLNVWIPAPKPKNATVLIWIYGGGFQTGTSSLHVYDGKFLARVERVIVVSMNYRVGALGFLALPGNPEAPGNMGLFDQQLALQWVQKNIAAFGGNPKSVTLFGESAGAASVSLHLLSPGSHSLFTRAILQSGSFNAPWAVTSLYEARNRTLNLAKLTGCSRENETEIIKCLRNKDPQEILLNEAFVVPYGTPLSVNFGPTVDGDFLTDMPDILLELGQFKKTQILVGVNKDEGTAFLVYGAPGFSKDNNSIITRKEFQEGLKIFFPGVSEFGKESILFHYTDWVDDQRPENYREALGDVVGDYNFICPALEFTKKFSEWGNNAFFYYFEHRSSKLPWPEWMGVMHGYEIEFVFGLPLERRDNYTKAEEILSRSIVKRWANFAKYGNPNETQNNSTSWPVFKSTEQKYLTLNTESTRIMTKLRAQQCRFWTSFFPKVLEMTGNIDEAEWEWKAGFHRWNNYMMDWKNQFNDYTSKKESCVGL
One number for each entry, in %.

Each of the following entries comes with a recorded value; kindly state inhibition at 50 µM for each.
1. COc1cc(C2C(C#N)=C(N)OC3=C2C(=O)CCC3)ccc1OCc1ccc(F)cc1 (stereo not shown) [Compound 4k]
2. N#CC1=C(N)OC2=C(C(=O)CCC2)C1c1ccc(OCc2ccc(Cl)cc2)cc1 (stereo not shown) [Compound 4c]
3. N#CC1=C(N)OC2=C(C(=O)CCC2)C1c1ccc(OCc2ccc(Br)cc2)cc1 (stereo not shown) [Compound 4d]
4. N#CC1=C(N)OC2=C(C(=O)CCC2)C1c1cccc(OCc2ccc(Br)cc2)c1 (stereo not shown) [Compound 4g]

a:
1. 80.5
2. 77.7
3. 67.8
4. 57.3

---

target: AChE (Homo sapiens); assay: biochemical; type: biochemical; details: 50 µM; mean ± S.E
Sequence (P22303 32-614): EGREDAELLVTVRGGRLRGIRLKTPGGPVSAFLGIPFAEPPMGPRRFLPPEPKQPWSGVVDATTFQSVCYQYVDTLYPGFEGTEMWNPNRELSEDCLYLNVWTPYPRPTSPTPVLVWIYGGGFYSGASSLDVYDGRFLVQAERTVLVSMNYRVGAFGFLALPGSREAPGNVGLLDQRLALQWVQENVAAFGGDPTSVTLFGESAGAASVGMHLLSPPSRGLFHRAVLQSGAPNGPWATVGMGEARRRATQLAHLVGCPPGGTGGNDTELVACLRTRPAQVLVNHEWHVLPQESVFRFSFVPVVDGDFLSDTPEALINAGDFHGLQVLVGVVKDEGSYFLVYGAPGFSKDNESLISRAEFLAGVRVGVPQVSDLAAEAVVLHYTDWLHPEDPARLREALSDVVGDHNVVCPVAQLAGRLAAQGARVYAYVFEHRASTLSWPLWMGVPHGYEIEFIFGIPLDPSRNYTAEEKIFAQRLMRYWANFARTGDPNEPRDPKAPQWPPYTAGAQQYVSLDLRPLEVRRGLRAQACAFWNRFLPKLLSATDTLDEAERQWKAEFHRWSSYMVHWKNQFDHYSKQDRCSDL
# if value of inhibition at 50 µM reaches 20%, tag Yes; if it stays below, tag No

| compound | category_label |
| --- | --- |
| N#CC1=C(N)OC2=C(C(=O)CCC2)C1c1cccc(OCc2ccc(Br)cc2)c1 (stereo not shown) | No |
| COc1cc(C2C(C#N)=C(N)OC3=C2C(=O)CCC3)ccc1OCc1ccc(F)cc1 (stereo not shown) | Yes |
| COc1ccc(COc2ccccc2C2C(C#N)=C(N)OC3=C2C(=O)CCC3)cc1 (stereo not shown) | No |
| N#CC1=C(N)OC2=C(C(=O)CCC2)C1c1ccc(OCc2ccc(Br)cc2)cc1 (stereo not shown) | Yes |
| N#CC1=C(N)OC2=C(C(=O)CCC2)C1c1ccc(OCCN2CCOCC2)cc1 (stereo not shown) | Yes |

q: Does the reported inhibition at 50 µM for N#CC1=C(N)OC2=C(C(=O)CCC2)C1c1cccc(OCc2ccc(Cl)cc2)c1 (stereo not shown) fall at or above the 20% mark?
a: No

q: Decide: is the reported value of inhibition at 50 µM for N#CC1=C(N)OC2=C(C(=O)CCC2)C1c1ccccc1OCc1ccc(Cl)cc1 (stereo not shown) equal to or greater than 20%?
a: No

q: Evaluate N#CC1=C(N)OC2=C(C(=O)CCC2)C1c1ccccc1OCc1cccc(Cl)c1 (stereo not shown) : inhibition at 50 µM at minimum 20%?
a: No

q: I'd appreciate it if you could say whether N#CC1=C(N)OC2=C(C(=O)CCC2)C1c1ccccc1 (stereo not shown) has inhibition at 50 µM at least equal to 20%.
a: Yes

q: Quick check: does COc1cc(C2C(C#N)=C(N)OC3=C2C(=O)CCC3)ccc1OCc1cccc(F)c1 (stereo not shown) have inhibition at 50 µM greater than or equal to 20%?
a: Yes

q: Check if inhibition at 50 µM >= 20% (inclusive). Item: COc1cc(C2C(C#N)=C(N)OC3=C2C(=O)CCC3)ccc1OCc1cccc(Cl)c1 (stereo not shown)
a: No

q: Evaluate N#CC1=C(N)OC2=C(C(=O)CCC2)C1c1ccc(OCc2ccc(Cl)cc2)cc1 (stereo not shown) : inhibition at 50 µM at minimum 20%?
a: Yes

q: Reported inhibition at 50 µM at or above 20%? N#CC1=C(N)OC2=C(C(=O)CCC2)C1c1ccc([N+](=O)[O-])cc1 (stereo not shown)
a: Yes

---

target: BChE (Homo sapiens, UniProt P06276)
quantity_kind: pKi
Numbers only, as −log10 of the molar value.

For reference, reported pKi for COc1cc(C2C(C#N)=C(N)OC3=C2C(=O)CCC3)ccc1OCc1ccc(F)cc1 (stereo not shown) [Compound 4k] stands at 6.26

---

biological target: UniProtKB P06276; test: BChE inhibition, modified Ellman's method; assay type: biochemical; conditions: 50 µM; mean ± S.E
Entry flag: true (1) if inhibition at 50 µM reaches 60%; false (0) if it does not.

q: Confirm if inhibition at 50 µM reported for the compound COc1ccc(COc2ccccc2C2C(C#N)=C(N)OC3=C2C(=O)CCC3)cc1 (stereo not drawn) is 60% or above.
a: false (0)

q: Please check the record N#CC1=C(N)OC2=C(C(=O)CCC2)C1c1ccccc1OCc1cccc(Cl)c1 (stereo not drawn) and state if its inhibition at 50 µM is at or above 60%.
a: false (0)

q: Could you verify whether the entry N#CC1=C(N)OC2=C(C(=O)CCC2)C1c1cccc(OCc2ccc(Cl)cc2)c1 (stereo not drawn) shows inhibition at 50 µM of no less than 60%?
a: true (1)

q: Say whether COc1cc(C2C(C#N)=C(N)OC3=C2C(=O)CCC3)ccc1OCc1cccc(F)c1 (stereo not drawn) shows inhibition at 50 µM of 60% or more.
a: true (1)

q: # check: inhibition at 50 µM of N#CC1=C(N)OC2=C(C(=O)CCC2)C1c1ccccc1OCc1ccc(Cl)cc1 (stereo not drawn) is greater than or equal to 60%
a: false (0)

q: Is the recorded value of inhibition at 50 µM equal to or greater than 60% for this compound? N#CC1=C(N)OC2=C(C(=O)CCC2)C1c1ccccc1 (stereo not drawn)
a: false (0)

q: I'd appreciate it if you could say whether COc1cc(C2C(C#N)=C(N)OC3=C2C(=O)CCC3)ccc1OCc1cccc(Cl)c1 (stereo not drawn) has inhibition at 50 µM at least equal to 60%.
a: true (1)
